Target System: Acetylcholinesterase (Plutella xylostella)
Sequence (Q8MZM0 whole entry): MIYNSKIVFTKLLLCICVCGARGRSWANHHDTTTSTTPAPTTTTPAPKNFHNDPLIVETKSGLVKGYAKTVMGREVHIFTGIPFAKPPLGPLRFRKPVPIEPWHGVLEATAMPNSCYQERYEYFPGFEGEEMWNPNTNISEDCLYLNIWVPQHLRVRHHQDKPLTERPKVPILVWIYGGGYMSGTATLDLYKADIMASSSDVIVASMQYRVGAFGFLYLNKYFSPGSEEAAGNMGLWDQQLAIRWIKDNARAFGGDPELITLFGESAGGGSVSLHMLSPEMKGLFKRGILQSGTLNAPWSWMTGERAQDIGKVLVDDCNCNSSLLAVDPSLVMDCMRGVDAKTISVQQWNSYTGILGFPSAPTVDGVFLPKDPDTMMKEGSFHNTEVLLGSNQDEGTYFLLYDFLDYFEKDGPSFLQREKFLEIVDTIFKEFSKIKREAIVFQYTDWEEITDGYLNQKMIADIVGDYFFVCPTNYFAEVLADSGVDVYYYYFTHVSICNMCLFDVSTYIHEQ
Experiment Summary: Inhibition of AChE in drug-resistant Plutella xylostella (diamondback moth) fourth-instar larvae homogenates using acetylthiocholine iodide substrate by colorimetric method
Condition Info: read-out: I50
Reported Endpoint: pIC50
# pIC50: negative log10 of molar concentration; output just the value

Data point: TRIPHENYLSTANNYL 2-(DIMETHYLCARBAMOYLTHIO)ACETATE ; pIC50 = 1.88
